Value source: ChEMBL document CHEMBL3885861

Species on record: Rattus norvegicus
Protocol: Open TG-GATES - Regimen: Daily Repeat
Assay type: toxicity, organism-based, Sprague-Dawley
Parameters: regimen Daily Repeat, gender Male, age 6 weeks
Measurement Parameters: in vivo, po, 300 mg/kg, […], tissue Plasma, route gavage, dose level Middle, time 28 day
As shown below, each of these compounds has a reported A/G value.
Give your answer as a number; write no unit.

Below, each entry is followed by its recorded A/G result.
COC1=CC(=O)C[C@@H](C)[C@]12Oc1c(Cl)c(OC)cc(OC)c1C2=O = 1.3
NC(N)=Nc1nc(CSCCC(N)=NS(N)(=O)=O)cs1 = 1.3
CCOc1ccc(NC(=O)CC(C)O)cc1 (centres undefined) = 0.8

Attention now turns to another entry.
Qu. Fill in reported A/G for this entry: CCOC(=O)CCC(=O)O[C@H]1[C@H](O[C@@H]2[C@@H](C)[C@H](O[C@H]3C[C@@](C)(OC)[C@@H](O)[C@H](C)O3)[C@@H](C)C(=O)O[C@H](CC)[C@@](C)(O)[C@H](O)[C@@H](C)C(=O)[C@H](C)C[C@@]2(C)O)O[C@H](C)C[C@@H]1N(C)C [ERYTHROMYCIN ETHYLSUCCINATE]
Ans. 1.1
